Target: Mcl-1 protein (UniProtKB primary accession number: Q07820) (Homo sapiens, UniProt Q07820)
Sequence (Q07820 whole entry): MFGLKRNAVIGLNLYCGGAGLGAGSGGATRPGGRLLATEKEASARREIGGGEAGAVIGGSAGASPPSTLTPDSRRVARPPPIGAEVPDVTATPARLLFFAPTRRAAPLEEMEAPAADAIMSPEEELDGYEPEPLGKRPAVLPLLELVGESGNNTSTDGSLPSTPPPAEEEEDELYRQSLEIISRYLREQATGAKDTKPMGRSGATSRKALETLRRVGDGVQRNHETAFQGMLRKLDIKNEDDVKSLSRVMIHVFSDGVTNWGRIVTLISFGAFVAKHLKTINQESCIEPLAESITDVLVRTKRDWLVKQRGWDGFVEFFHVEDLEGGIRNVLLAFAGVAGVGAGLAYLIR
Assay: Inhibition of Mcl-1 by fluorescence polarisation, Method 1
Format: binding
Conditions: fluorescence polarisation test; Method 2 values are underlined in the patent (underlining not visible here); read-out: IC50 (M) Mcl-1 FP
Quantity: IC50 (M)
Just the number please, in M, no unit attached.

> print(dat)
                                   compound  units.of.measure  readout.number
1  CNCCOc1ccc(-c2c(-c3ccco3)sc3ncnc(OC(Cc4ccccc4OC)C(=O)O)c23)c(C)c1Cl (stereo not drawn)                 M           6e-09
2  Cc1c(-c2c(-c3ccc(F)cc3)sc3ncnc(OC(Cc4ccccc4OCc4ccnc(COc5ccccc5)n4)C(=O)O)c23)ccc(OCCN2CCN(C)CC2)c1Cl (stereo not drawn)                 M         7.3e-09
3  Cc1c(-c2c(-c3ccco3)sc3ncnc(O[C@H](Cc4ccccc4OCc4ccco4)C(=O)O)c23)ccc(OCCN2CCN(C)CC2)c1Cl                 M         8.6e-09
4  Cc1c(-c2c(-c3ccco3)sc3ncnc(OC(Cc4ccccc4F)C(=O)O)c23)ccc(OCCN2CCN(C)CC2)c1Cl (stereo not drawn) [Example 341]                 M         3.5e-08
5  CNC(=O)COc1ccccc1CC(Oc1ncnc2sc(-c3ccc(F)o3)c(-c3ccc(OCCN4CCN(C)CC4)c(Cl)c3C)c12)C(=O)O (stereo not drawn)                 M         3.6e-09

Prompt: // lookup IC50 for Cc1c(-c2c(-c3ccco3)sc3ncnc(OC(Cc4ccccc4OCc4cc5ccccc5cn4)C(=O)O)c23)ccc(OCCN2CCN(C)CC2)c1Cl (stereo not drawn)
Completion: 1.2e-08

----------
System: H929 multiple myeloma tumour line
Test: In vitro cytotoxicity, Microculture Tetrazolium Assay
Type: cell-based
Settings: Homo sapiens, NCI-H929, 48 h, H929 cells, 48 hours exposure, MTT; read-out: IC50 (μM) MTT H929
// IC50 lookup, one value per entry
Just the number please, in µM, no unit attached.

> print(dat)
                                   compound  quantity  units.of.measure  readout.number
1  COc1ccccc1CC(Oc1ncnc2sc(-c3ccc(F)c(OCC(F)(F)F)c3)c(-c3ccc(OCCN4CCN(C)CC4)c(Cl)c3C)c12)C(=O)O (stereo not drawn)      IC50                µM            1.84
2  CCCCn1nccc1COc1ccccc1CC(Oc1ncnc2sc(-c3ccc(F)cc3)c(-c3ccc(OCCN(C)C)c(Cl)c3C)c12)C(=O)O (stereo not drawn)      IC50                µM           0.099

Prompt: // lookup IC50 for COCCN(C)c1nccc(COc2ccccc2CC(Oc2ncnc3sc(-c4ccc(F)cc4)c(-c4ccc(OCCN5CCN(C)CC5)c(Cl)c4C)c23)C(=O)O)n1 (stereo not drawn)
Completion: 0.122

----------
// IC50 lookup, one value per entry
Target: Mcl-1 protein (UniProtKB primary accession number: Q07820) (Homo sapiens, UniProt Q07820)
Assay: Inhibition of Mcl-1 by fluorescence polarisation, Method 1
Format: binding
Conditions: fluorescence polarisation; Method 1, or Method 2; read-out: IC50 (M) Mcl-1 FP
Just the number please, in M, no unit attached.

A selection of reference data follows.
Compound	Units Of Measure	Readout Number
CCN1CCN(CCOc2ccc(-c3c(-c4ccco4)sc4ncnc(OC(Cc5ccccc5OCc5ccnc(OC)n5)C(=O)O)c34)c(C)c2Cl)CC1 (stereo not shown)	M	3.2e-09
CCc1sc2ncnc(OC(Cc3ccccc3)C(=O)O)c2c1-c1ccc(OCCCO)c(Cl)c1C (stereo not shown)	M	7.4e-09
Cc1c(-c2c(-c3cccc(F)c3)sc3ncnc(O[C@H](Cc4ccccc4O)C(=O)O)c23)ccc(OCCN2CCN(C)CC2)c1Cl	M	3.7e-09
CC#Cc1sc2ncnc(OC(Cc3ccccc3OC)C(=O)O)c2c1-c1ccc(OCCN2CCNCC2)c(Cl)c1C (stereo not shown)	M	1.9e-08
Cc1c(-c2c(-c3ccc(F)cc3)sc3ncnc(OC(Cc4ccccc4OCC4CCCO4)C(=O)O)c23)ccc(OCCN2CCN(CCCCN)CC2)c1Cl (stereo not shown)	M	2.2e-08

Prompt: // lookup IC50 for Cc1c(-c2c(C#N)sc3ncnc(OC(Cc4ccccc4)C(=O)O)c23)ccc(OCCN2CCN(C)CC2)c1Cl (stereo not shown)
Completion: 2.4e-07

Prompt: // lookup IC50 for COc1ccccc1CC(Oc1ncnc2sc(-c3cccc(C(F)(F)F)c3)c(-c3ccc(OCCN4CCN(C)CC4)c(Cl)c3C)c12)C(=O)O (stereo not shown)
Completion: 1.3e-07

Prompt: // lookup IC50 for Cc1c(-c2c(-c3ccco3)sc3ncnc(OC(Cc4ccccc4OCc4ccccn4)C(=O)O)c23)ccc(O)c1Cl (stereo not shown)
Completion: 2.1e-08

Prompt: // lookup IC50 for CC#Cc1sc2ncnc(OC(Cc3ccccc3OC)C(=O)O)c2c1-c1ccc(OCCC2CCN(C)CC2)c(Cl)c1C (stereo not shown)
Completion: 2.5e-08

Prompt: // lookup IC50 for COc1ccccc1CC(Oc1ncnc2sc(-c3cccc(OCCN4CCOCC4)c3)c(-c3ccc(OCCN4CCN(C)CC4)c(Cl)c3C)c12)C(=O)O (stereo not shown)
Completion: 8e-09

----------
Test system: H929 multiple myeloma tumour line
Test: In vitro cytotoxicity, Microculture Tetrazolium Assay
Type: cell-based
Details: Homo sapiens, NCI-H929, 48 h, H929 cells, 48 hours exposure, MTT; read-out: IC50 (μM) MTT H929
// IC50 lookup, one value per entry
Just the number please, in µM, no unit attached.

A selection of reference data follows.
Compound	Units Of Measure	Readout Number
COc1ccccc1CC(Oc1ncnc2sc(-c3cccc(OCc4ccncc4)c3)c(-c3ccc(OCCN4CCN(C)CC4)c(Cl)c3C)c12)C(=O)O (stereo not shown)	µM	0.539
Cc1c(-c2c(-c3ccco3)sc3ncnc(OC(Cc4ccccc4OCc4ccnc(Cl)n4)C(=O)O)c23)ccc(OCCN2CCN(C)CC2)c1Cl (stereo not shown)	µM	0.023
Cc1c(-c2c(-c3cccc(F)c3)sc3ncnc(OC(Cc4ccccc4OC(C)C)C(=O)O)c23)ccc(OCCN2CCN(C)CC2)c1Cl (stereo not shown)	µM	0.518

Prompt: Observed IC50 on H929 multiple myeloma tumour line for Cc1c(-c2c(-c3ccc(F)cc3)sc3ncnc(OC(Cc4ccccc4OCc4ccnc(-c5cccs5)n4)C(=O)O)c23)ccc(OCCN2CCN(C)CC2)c1Cl (stereo not shown) , please.
Completion: 0.017

Prompt: Observed IC50 on H929 multiple myeloma tumour line for CCc1sc2ncnc(OC(Cc3ccccc3)C(=O)O)c2c1-c1cc(N)c(OCCN2CCN(C)CC2)c(Cl)c1C (stereo not shown) , please.
Completion: 20.3

----------
// IC50 lookup, one value per entry
Tested on: H929 multiple myeloma tumour line
Assay: In vitro cytotoxicity, Microculture Tetrazolium Assay
Format: cell-based
Settings: Homo sapiens, NCI-H929, 48 h, H929 cells, 48 hours exposure, MTT; read-out: IC50 (μM) MTT H929
Description: The cytotoxicity studies were carried out on the H929 multiple myeloma tumour line. The cells are distributed onto microplates and exposed to the test compounds for 48 hours.
Just the number please, in µM, no unit attached.

Compound	Units Of Measure	IC50
COc1ccccc1CC(Oc1ncnc2sc(-c3ccco3)c(-c3ccc(OC4CCNC4)c(Cl)c3C)c12)C(=O)O (single isomer, unassigned)	µM	1.64

Prompt: // lookup IC50 for CCOc1nccc(COc2ccccc2CC(Oc2ncnc3sc(-c4ccc(F)o4)c(-c4ccc(OCCN5CCN(C)CC5)c(Cl)c4C)c23)C(=O)O)n1 (stereo not drawn)
Completion: 0.005

Prompt: // lookup IC50 for Cc1c(-c2c(-c3ccco3)sc3ncnc(OC(Cc4ccccc4OCc4ccn(C)n4)C(=O)O)c23)ccc(OCCN2CCN(C)CC2)c1Cl (stereo not drawn)
Completion: 0.324

Prompt: // lookup IC50 for CCc1sc2ncnc(OC(Cc3ccccc3)C(=O)O)c2c1-c1ccc(OCCCN2CCCC2=O)c(Cl)c1C (stereo not drawn)
Completion: 22.3

Prompt: // lookup IC50 for Cc1c(-c2c(-c3ccc(Cl)o3)sc3ncnc(OC(Cc4ccccc4OCc4cocn4)C(=O)O)c23)ccc(OCCN2CCN(C)CC2)c1Cl (stereo not drawn)
Completion: 0.076

Prompt: // lookup IC50 for Cc1c(-c2c(-c3ccco3)sc3ncnc(OC(Cc4ccccc4OCc4cc5ccccc5cn4)C(=O)O)c23)ccc(OCCN2CCN(C)CC2)c1Cl (stereo not drawn)
Completion: 0.312

----------
Molecular target: Mcl-1 protein (UniProtKB primary accession number: Q07820) (Homo sapiens, UniProt Q07820)
Assay: Inhibition of Mcl-1 by fluorescence polarisation, Method 1
Assay type: binding
Conditions: fluorescence polarisation test; Method 2 values are underlined in the patent (underlining not visible here); read-out: IC50 (M) Mcl-1 FP
// IC50 lookup, one value per entry
Just the number please, in M, no unit attached.

A selection of reference data follows.
Compound	Quantity	Units Of Measure	Readout Number
Cc1ccc(-c2nccc(COc3ccccc3CC(Oc3ncnc4sc(-c5ccc(F)cc5)c(-c5ccc(OCCN6CCN(C)CC6)c(Cl)c5C)c34)C(=O)O)n2)cn1 (stereo not drawn)	IC50	M	3.5e-09
Cc1c(-c2c(-c3ccc(F)cc3)sc3ncnc(OC(Cc4ccccc4OCc4ccnc(C(F)(F)F)n4)C(=O)O)c23)ccc(OCCN2CCN(C)CC2)c1Cl (stereo not drawn)	IC50	M	5.6e-09
Cc1c(-c2c(-c3ccco3)sc3ncnc(OC(Cc4ccccc4OCc4cnn(C)c4)C(=O)O)c23)ccc(OCCN2CCN(C)CC2)c1Cl (stereo not drawn)	IC50	M	8e-09
COc1ccccc1CC(Oc1ncnc2sc(-c3ccco3)c(-c3ccc(OCCN4CCN(CC(N)=O)CC4)c(Cl)c3C)c12)C(=O)O (stereo not drawn)	IC50	M	7.9e-09
COc1ccccc1CC(Oc1ncnc2sc(-c3ccco3)c(-c3ccc(OC4CN5CCC4CC5)c(Cl)c3C)c12)C(=O)O (single isomer, unassigned) [Example 308]	IC50	M	5.9e-09

// moving on: another record for IC50
Prompt: // lookup IC50 for COCCc1nccc(COc2ccccc2CC(Oc2ncnc3sc(-c4ccc(F)o4)c(-c4ccc(OCCN5CCN(C)CC5)c(Cl)c4C)c23)C(=O)O)n1 (stereo not drawn)
Completion: 2.3e-09

Where do these numbers come from? They come from patent US9670227B2.
